Parameter: GTP binding Emax. Scope: all listed entries.
# Assay Target: human δ opioid receptor (human, UniProt P41143 1-372)
# Sequence (P41143 whole entry, stated change not applied): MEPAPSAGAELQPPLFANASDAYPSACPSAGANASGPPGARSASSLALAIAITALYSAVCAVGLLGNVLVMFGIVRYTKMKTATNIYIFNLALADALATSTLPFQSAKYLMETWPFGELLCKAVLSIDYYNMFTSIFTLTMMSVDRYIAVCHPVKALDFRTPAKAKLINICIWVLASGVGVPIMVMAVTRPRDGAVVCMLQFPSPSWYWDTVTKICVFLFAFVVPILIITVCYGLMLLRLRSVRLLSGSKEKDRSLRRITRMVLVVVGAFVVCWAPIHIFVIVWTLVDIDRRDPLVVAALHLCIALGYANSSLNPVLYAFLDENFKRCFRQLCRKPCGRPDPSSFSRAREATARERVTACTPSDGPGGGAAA
# Assay Overview: cell-based or functional assay
Square brackets hold non-standard residues; d marks the D form. Ends that are not written are not given here. * marks the point of attachment. OBzl(3,5-(CF3)2) = FC(F)(F)c1cc(CO*)cc(C(F)(F)F)c1
Express your answer in %, writing the number without its unit.

1. Y[dA]GFGPLW-{OBzl(3,5-(CF3)2)} (also: TFA salt, also called TY006) [TyrDAlaGlyPheGlyProLeuTrpOBn(CF3)2] : 33.6

Exam item: // GTP binding Emax lookup, key: Y[dA]GFLPLW-{OBzl(3,5-(CF3)2)} (also called TY004) [TyrDAlaGlyPheLeuProLeuTrpOBn(CF3)2]
Marked response: 42.5

Exam item: For Y[dA]GFFPLW-{OBzl(3,5-(CF3)2)} (also called TY003) [TyrDAlaGlyPhePheProLeuTrpOBn(CF3)2] then?
Marked response: 39
